Reference source for all entries: patent US9234006B2

- System: E. coli ATCC25922
- Procedure Details: MIC susceptibility testing, broth microdilution in CaMHB
- Type: cell-based, Escherichia coli
- Reported Conditions: Table 4A, different batches of cation-adjusted Muller-Hinton broth
*1 amine or outer side, *2 acyl side, *3 side chain or, on linkers, in order; H or OH if unused. Where a SMILES comes first, the peptide text is derived from it. Bridges are numbered along the chain shown (N, C = ends). [ ]: non-standard residue; d: D form. The star is where a group is joined. ξ: configuration not given here. Thr(3ξ) = CC(O)[C@H](N)C(=O)O; NH(2-ClPh) = Clc1ccccc1N*; Dab = NCC[C@H](N)C(=O)O; CO = O=C([*:1])[*:2]; X9 = O=C(CCCCCO)*
Recorded MIC for the following molecules
Express your answer in micrograms/mL, writing the number without its unit.

CC(C)C[C@@H]1NC(=O)[C@@H](Cc2ccccc2)NC(=O)[C@H](CCN)NC(=O)[C@@H](NC(=O)[C@H](CCN)NC(=O)[C@@H](NC(=O)[C@H](CCN)NC(=O)Nc2ccccc2Cl)[C@@H](C)O)CCNC(=O)[C@H]([C@@H](C)O)NC(=O)[C@H](CCN)NC(=O)[C@H](CCN)NC1=O [CB-182,804, reference compound] ({NH(2-ClPh)-CO}-[Dab]T[Dab][Dab][Dab][dF]L[Dab][Dab]T; lactam 4-C; N-terminus assumed) ... 2

Switching to the query record.
Look up MIC for this molecule: CC(C)C[C@@H]1NC(=O)[C@@H](Cc2ccccc2)NC(=O)[C@H](CCN)NC(=O)[C@@H](NC(=O)[C@H](CCN)NC(=O)[C@@H](NC(=O)CCCCCO)C(C)O)CCNC(=O)[C@H](C(C)O)NC(=O)[C@H](CCN)NC(=O)[C@H](CCN)NC1=O (stereo partly drawn) [Example 21] (X9-[Thr(3ξ)][Dab][Dab][Dab][dF]L[Dab][Dab][Thr(3ξ)]; lactam 3-C) 32

###

- System: P. aeruginosa ATCC27853
- Procedure Details: MIC susceptibility testing, broth microdilution in CaMHB
- Format: cell-based, Pseudomonas aeruginosa
- Reported Conditions: Table 4A, different batches of cation-adjusted Muller-Hinton broth
Where a SMILES comes first, the peptide text is derived from it. Bridges are numbered along the chain shown (N, C = ends). [ ]: non-standard residue; d: D form. The star is where a group is joined. ξ: configuration not given here. Thr(3ξ) = CC(O)[C@H](N)C(=O)O; Dab = NCC[C@H](N)C(=O)O; X1 = CCCCCCC(O)C(=O)*; Ahp = NCCCCCCC(=O)O; X4 = CN(C)CCCC(=O)*
Quantity: MIC (micrograms/mL)
Express your answer in micrograms/mL, writing the number without its unit.

Check out these entries, answers already filled in.
CC(C)C[C@@H]1NC(=O)[C@@H](Cc2ccccc2)NC(=O)[C@H](CCN)NC(=O)[C@@H](NC(=O)[C@H](CCN)NC(=O)[C@@H](NC(=O)CCCCCCN)C(C)O)CCNC(=O)[C@H](C(C)O)NC(=O)[C@H](CCN)NC(=O)[C@H](CCN)NC1=O (stereo partly drawn) [Example 19, 7-Aminoheptanoyl polymyxin B nonapeptide] (H-[Ahp][Thr(3ξ)][Dab][Dab][Dab][dF]L[Dab][Dab][Thr(3ξ)]; lactam 4-C) ... 0.25
CC(C)C[C@@H]1NC(=O)[C@@H](Cc2ccccc2)NC(=O)[C@H](CCN)NC(=O)[C@@H](NC(=O)[C@H](CCN)NC(=O)[C@@H](NC(=O)CCCN(C)C)C(C)O)CCNC(=O)[C@H](C(C)O)NC(=O)[C@H](CCN)NC(=O)[C@H](CCN)NC1=O (stereo partly drawn) [Example 18] (X4-[Thr(3ξ)][Dab][Dab][Dab][dF]L[Dab][Dab][Thr(3ξ)]; lactam 3-C) ... 0.125

Switching to the query record.
Look up MIC for this compound: CCCCCCC(O)C(=O)N[C@H](C(=O)N[C@@H](CCN)C(=O)N[C@H]1CCNC(=O)[C@H](C(C)O)NC(=O)[C@H](CCN)NC(=O)[C@H](CCN)NC(=O)[C@H](CC(C)C)NC(=O)[C@@H](CC(C)C)NC(=O)[C@H](CCN)NC1=O)C(C)O (stereo partly drawn) [Example 26] (X1-[Thr(3ξ)][Dab][Dab][Dab][dL]L[Dab][Dab][Thr(3ξ)]; lactam 3-C) 4

###

Recorded Cmax for the following compounds
- Procedure Details: Pharmacokinetic and urinary clearance studies in rats
- Format: in vivo
- Reported Conditions: male, Sprague Dawley, rat, in vivo, iv, 1 mg/kg
Structures can show the parent of a compound that is named as a salt. Where a SMILES comes first, the peptide text is derived from it. Bridges are numbered along the chain shown (N, C = ends). [ ]: non-standard residue; d: D form. The star is where a group is joined. ξ: configuration not given here. Thr(3ξ) = CC(O)[C@H](N)C(=O)O; Dab = NCC[C@H](N)C(=O)O; X1 = CCCCCCC(O)C(=O)*; GABA = NCCCC(=O)O; βAla = NCCC(=O)O
Express your answer in ng/mL, writing the number without its unit.

Check out these entries, answers already filled in.
CCCCCCC(O)C(=O)N[C@H](C(=O)N[C@@H](CCN)C(=O)N[C@H]1CCNC(=O)[C@H](C(C)O)NC(=O)[C@H](CCN)NC(=O)[C@H](CCN)NC(=O)[C@H](CC(C)C)NC(=O)[C@@H](Cc2ccccc2)NC(=O)[C@H](CCN)NC1=O)C(C)O (stereo partly drawn) [Example 2, Sulphate Salt] (X1-[Thr(3ξ)][Dab][Dab][Dab][dF]L[Dab][Dab][Thr(3ξ)]; lactam 3-C) ... 2400
CC(C)C[C@@H]1NC(=O)[C@@H](Cc2ccccc2)NC(=O)[C@H](CCN)NC(=O)[C@@H](NC(=O)[C@H](CCN)NC(=O)[C@@H](NC(=O)CCCN)[C@@H](C)O)CCNC(=O)[C@H]([C@@H](C)O)NC(=O)[C@H](CCN)NC(=O)[C@H](CCN)NC1=O [Example 6, Sulphate Salt] (H-[GABA]T[Dab][Dab][Dab][dF]L[Dab][Dab]T; lactam 4-C) ... 3580

Look up Cmax for this compound: CC(C)C[C@@H]1NC(=O)[C@@H](Cc2ccccc2)NC(=O)[C@H](CCN)NC(=O)[C@@H](NC(=O)[C@H](CCN)NC(=O)[C@@H](NC(=O)CCN)C(C)O)CCNC(=O)[C@H](C(C)O)NC(=O)[C@H](CCN)NC(=O)[C@H](CCN)NC1=O (stereo partly drawn) [Example 4, Sulphate Salt] (H-[βAla][Thr(3ξ)][Dab][Dab][Dab][dF]L[Dab][Dab][Thr(3ξ)]; lactam 4-C) 2520

###

- Tested on: E. coli ATCC25922
- Procedure Details: MIC susceptibility testing, broth microdilution in CaMHB
- Type: cell-based, Escherichia coli
- Reported Conditions: Table 4A, different batches of cation-adjusted Muller-Hinton broth
- Method: To evaluate the potency and spectrum of the compounds, susceptibility testing was performed against four strains of each of the four Gram negative pathogens, Escherichia coli, Pseudomonas aeruginosa, Klebsiella pneumoniae and Acinetobacter baumannii. The day before testing, 3 to 4 colonies were picked from fresh Mueller-Hinton Agar (MHA) plate and transferred into 10 mL of Cation adjusted MHB (CaMHB). Cultures were incubated at 37° C. […]
Where a name gives a salt, the structure may show the parent alone. Where a SMILES comes first, the peptide text is derived from it. Bridges are numbered along the chain shown (N, C = ends). [ ]: non-standard residue; d: D form. The star is where a group is joined. ξ: configuration not given here. ξHexahydromandeloyl = O=C(C(O)C1CCCCC1)*; Thr(3ξ) = CC(O)[C@H](N)C(=O)O; Octanoyl = CCCCCCCC(=O)*; Dab = NCC[C@H](N)C(=O)O; X12 = O=C(CCCN1CCOCC1)*; X11 = CC(C)(N)CCC(=O)*; Glycolyl = O=C(CO)*; X4 = CN(C)CCCC(=O)*; GABA = NCCCC(=O)O
Quantity: MIC (micrograms/mL)
Express your answer in micrograms/mL, writing the number without its unit.

Check out these entries, answers already filled in.
CC(C)C[C@@H]1NC(=O)[C@@H](Cc2ccccc2)NC(=O)[C@H](CCN)NC(=O)[C@@H](NC(=O)[C@H](CCN)NC(=O)[C@@H](NC(=O)CCC(C)(C)N)C(C)O)CCNC(=O)[C@H](C(C)O)NC(=O)[C@H](CCN)NC(=O)[C@H](CCN)NC1=O (stereo partly shown) [Example 28] (X11-[Thr(3ξ)][Dab][Dab][Dab][dF]L[Dab][Dab][Thr(3ξ)]; lactam 3-C) ... 4
CC(C)C[C@@H]1NC(=O)[C@@H](Cc2ccccc2)NC(=O)[C@H](CCN)NC(=O)[C@@H](NC(=O)[C@H](CCN)NC(=O)[C@@H](NC(=O)CCCN2CCOCC2)C(C)O)CCNC(=O)[C@H](C(C)O)NC(=O)[C@H](CCN)NC(=O)[C@H](CCN)NC1=O (stereo partly shown) [Example 20] (X12-[Thr(3ξ)][Dab][Dab][Dab][dF]L[Dab][Dab][Thr(3ξ)]; lactam 3-C) ... 4
CC(C)C[C@@H]1NC(=O)[C@@H](Cc2ccccc2)NC(=O)[C@H](CCN)NC(=O)[C@@H](NC(=O)[C@H](CCN)NC(=O)[C@@H](NC(=O)CO)C(C)O)CCNC(=O)[C@H](C(C)O)NC(=O)[C@H](CCN)NC(=O)[C@H](CCN)NC1=O (stereo partly shown) [Example 16, Hydroxyacetyl polymyxin B nonapeptide] (Glycolyl-[Thr(3ξ)][Dab][Dab][Dab][dF]L[Dab][Dab][Thr(3ξ)]; lactam 3-C) ... 32
CCCCCCCC(=O)N[C@H](C(=O)N[C@H](CO)C(=O)N[C@H]1CCNC(=O)[C@H]([C@@H](C)O)NC(=O)[C@H](CCN)NC(=O)[C@H](CCN)NC(=O)[C@H](CC(C)C)NC(=O)[C@@H](Cc2ccccc2)NC(=O)[C@H](CCN)NC1=O)[C@@H](C)O [NAB739, reference compound] (Octanoyl-T[dS][Dab][Dab][dF]L[Dab][Dab]T; lactam 3-C; N-terminus assumed) ... 2
CC(C)C[C@@H]1NC(=O)[C@@H](Cc2ccccc2)NC(=O)[C@H](CCN)NC(=O)[C@@H](NC(=O)[C@H](CCN)NC(=O)[C@@H](NC(=O)CCCN)[C@@H](C)O)CCNC(=O)[C@H]([C@@H](C)O)NC(=O)[C@H](CCN)NC(=O)[C@H](CCN)NC1=O [Example 6, Sulphate Salt] (H-[GABA]T[Dab][Dab][Dab][dF]L[Dab][Dab]T; lactam 4-C) ... 2
CC(C)C[C@@H]1NC(=O)[C@@H](Cc2ccccc2)NC(=O)[C@H](CCN)NC(=O)[C@@H](NC(=O)[C@H](CCN)NC(=O)[C@@H](NC(=O)C(O)C2CCCCC2)C(C)O)CCNC(=O)[C@H](C(C)O)NC(=O)[C@H](CCN)NC(=O)[C@H](CCN)NC1=O (stereo partly shown) [Example 34] (ξHexahydromandeloyl-[Thr(3ξ)][Dab][Dab][Dab][dF]L[Dab][Dab][Thr(3ξ)]; lactam 3-C) ... 0.5

Switching to the query record.
Look up MIC for this compound: CC(C)C[C@@H]1NC(=O)[C@@H](Cc2ccccc2)NC(=O)[C@H](CCN)NC(=O)[C@@H](NC(=O)[C@H](CCN)NC(=O)[C@@H](NC(=O)CCCN(C)C)C(C)O)CCNC(=O)[C@H](C(C)O)NC(=O)[C@H](CCN)NC(=O)[C@H](CCN)NC1=O (stereo partly shown) [Example 18] (X4-[Thr(3ξ)][Dab][Dab][Dab][dF]L[Dab][Dab][Thr(3ξ)]; lactam 3-C) 0.5
